Sourced from ChEMBL document CHEMBL1201862

assaySystem: Trypsin (Sus scrofa, UniProt P00761)
Sequence (P00761 whole entry): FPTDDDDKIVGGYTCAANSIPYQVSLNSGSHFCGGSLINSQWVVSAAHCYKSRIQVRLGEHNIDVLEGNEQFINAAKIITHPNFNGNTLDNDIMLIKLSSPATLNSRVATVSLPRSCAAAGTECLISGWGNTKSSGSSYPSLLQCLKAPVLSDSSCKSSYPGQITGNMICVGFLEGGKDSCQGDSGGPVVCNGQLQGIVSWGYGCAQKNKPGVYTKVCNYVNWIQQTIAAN
assayExplanation: porcine trypsin inhibitors, dose response, selectivity assay for Rce1 protease inhibitor project, biochemical, quenched peptide fluorescence, cherry-pick (AID 488789)
The source made the active and inactive calls.
Please go through the items and note down their AC50.

So what's the measured AC50 for this one? `C[n+]1ccc(-c2ccccc2)c2ccccc21`
23.1 µM (active)

So what's the measured AC50 for this one? `CCCCC[n+]1cccc2c3ccccc3ccc21`
8.59 µM (active)

So what's the measured AC50 for this one? `Cc1c(Cc2ccccc2)c(=O)oc2c(C)c(OCC(=O)N3CCC(C(=O)O)CC3)ccc12`
9.51 µM (active)

So what's the measured AC50 for this one? `COc1ccc(-c2nc(CC(=O)O)cs2)cc1OC`
6.53 µM (active)

So what's the measured AC50 for this one? CC1(C(=O)N(CC(=O)NC2CCCC2)Cc2ccco2)CC(=O)N=C2C=CC=CN21 (stereo not given)
4.21 µM (active)

###

assaySystem: Alkaline phosphatase, tissue-nonspecific isozyme (Homo sapiens)
Sequence (P05186 whole entry): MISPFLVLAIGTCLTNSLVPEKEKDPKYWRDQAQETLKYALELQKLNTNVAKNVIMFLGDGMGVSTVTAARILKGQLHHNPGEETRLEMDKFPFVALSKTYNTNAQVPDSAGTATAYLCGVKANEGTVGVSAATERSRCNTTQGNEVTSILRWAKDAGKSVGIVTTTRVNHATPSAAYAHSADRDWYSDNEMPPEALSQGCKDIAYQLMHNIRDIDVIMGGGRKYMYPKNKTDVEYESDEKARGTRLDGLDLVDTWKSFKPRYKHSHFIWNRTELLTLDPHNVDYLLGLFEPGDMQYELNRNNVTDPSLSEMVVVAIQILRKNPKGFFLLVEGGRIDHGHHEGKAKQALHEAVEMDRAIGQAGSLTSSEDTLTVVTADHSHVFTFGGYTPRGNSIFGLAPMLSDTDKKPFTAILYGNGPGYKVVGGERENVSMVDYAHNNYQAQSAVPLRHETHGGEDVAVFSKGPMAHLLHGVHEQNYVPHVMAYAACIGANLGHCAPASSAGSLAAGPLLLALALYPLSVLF
assayExplanation: human TNAP enzyme inhibitors, SAR follow-up, biochemical, luminescent, dose response (AID 1056)
Calls of active or inactive are those of the source.
Answer with one of the outcomes active, inactive

Assay result, entry `CCCCN1C(=O)/C(=N\Nc2ccccc2F)c2ccccc21` — outcome?
inactive

Assay result, entry `CCCCOc1ccc(-c2cc(C(=O)OC)[nH]n2)cc1` — outcome?
active

Assay result, entry `COC(=O)c1cc(-c2cc(F)c(F)cc2F)n[nH]1` — outcome?
active

Assay result, entry `O=C(c1cc(-c2ccc(Cl)cc2Cl)n[nH]1)N1CCCCC1` — outcome?
active

###

Please go through the items and note down their AC50.
assaySystem: FAD-linked sulfhydryl oxidase ALR (Homo sapiens)
Sequence (P55789 whole entry): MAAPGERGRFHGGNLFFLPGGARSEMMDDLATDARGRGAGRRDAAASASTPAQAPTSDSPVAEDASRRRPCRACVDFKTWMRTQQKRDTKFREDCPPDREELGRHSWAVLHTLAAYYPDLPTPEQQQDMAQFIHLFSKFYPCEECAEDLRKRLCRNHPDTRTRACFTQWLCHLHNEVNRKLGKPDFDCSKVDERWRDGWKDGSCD
assayExplanation: inhibitors of human ALR sulfhydryl oxidase, dose response, biochemical, H2O2 detection, luminescence, cherry-pick (AID 493248)
The source made the active and inactive calls.

So what's the measured AC50 for this one? `Cc1ccc(-c2c[nH]c(SCCNC(=O)c3ccco3)n2)cc1`
2.88 µM (active)

So what's the measured AC50 for this one? `COc1ccc2c(/C=N/Nc3ccc(C(=O)O)cc3)c[nH]c2c1`
1.9 µM (active)

So what's the measured AC50 for this one? COc1ccc(N2CC(NC(=O)N3CCN(c4ccccc4)CC3)CC2=O)cc1 (stereo not given)
4.41 µM (active)

So what's the measured AC50 for this one? `Oc1c(Cl)cc(Cl)cc1CNc1ccc(Br)cn1`
5.33 µM (active)

So what's the measured AC50 for this one? `Cc1ccc(C2=CSC3=NNC4(CCCCC4)NN23)cc1`
1.86 µM (active)

So what's the measured AC50 for this one? `Oc1ccc(-c2cn3ccccc3n2)cc1O`
1.32 µM (active)

So what's the measured AC50 for this one? `COc1cc(/C=N/NC(=O)CCN2CCCCC2)ccc1O`
3.05 µM (active)

So what's the measured AC50 for this one? `O=C(NCc1nnc(S)n1-c1ccc(Cl)c(Cl)c1)c1ccco1`
4.14 µM (active)

So what's the measured AC50 for this one? CC(=O)c1ccc(S(=O)(=O)NCC(=O)NC(c2nc3ccccc3[nH]2)C(C)C)cc1 (stereo not given)
0.113 µM (active)

So what's the measured AC50 for this one? `COc1cc(/C=N/NC2=NCCCCC2)ccc1O`
0.028 µM (active)

###

assaySystem: Aminopeptidase N (Plasmodium falciparum FcB1/Columbia)
Sequence (O96935 whole entry): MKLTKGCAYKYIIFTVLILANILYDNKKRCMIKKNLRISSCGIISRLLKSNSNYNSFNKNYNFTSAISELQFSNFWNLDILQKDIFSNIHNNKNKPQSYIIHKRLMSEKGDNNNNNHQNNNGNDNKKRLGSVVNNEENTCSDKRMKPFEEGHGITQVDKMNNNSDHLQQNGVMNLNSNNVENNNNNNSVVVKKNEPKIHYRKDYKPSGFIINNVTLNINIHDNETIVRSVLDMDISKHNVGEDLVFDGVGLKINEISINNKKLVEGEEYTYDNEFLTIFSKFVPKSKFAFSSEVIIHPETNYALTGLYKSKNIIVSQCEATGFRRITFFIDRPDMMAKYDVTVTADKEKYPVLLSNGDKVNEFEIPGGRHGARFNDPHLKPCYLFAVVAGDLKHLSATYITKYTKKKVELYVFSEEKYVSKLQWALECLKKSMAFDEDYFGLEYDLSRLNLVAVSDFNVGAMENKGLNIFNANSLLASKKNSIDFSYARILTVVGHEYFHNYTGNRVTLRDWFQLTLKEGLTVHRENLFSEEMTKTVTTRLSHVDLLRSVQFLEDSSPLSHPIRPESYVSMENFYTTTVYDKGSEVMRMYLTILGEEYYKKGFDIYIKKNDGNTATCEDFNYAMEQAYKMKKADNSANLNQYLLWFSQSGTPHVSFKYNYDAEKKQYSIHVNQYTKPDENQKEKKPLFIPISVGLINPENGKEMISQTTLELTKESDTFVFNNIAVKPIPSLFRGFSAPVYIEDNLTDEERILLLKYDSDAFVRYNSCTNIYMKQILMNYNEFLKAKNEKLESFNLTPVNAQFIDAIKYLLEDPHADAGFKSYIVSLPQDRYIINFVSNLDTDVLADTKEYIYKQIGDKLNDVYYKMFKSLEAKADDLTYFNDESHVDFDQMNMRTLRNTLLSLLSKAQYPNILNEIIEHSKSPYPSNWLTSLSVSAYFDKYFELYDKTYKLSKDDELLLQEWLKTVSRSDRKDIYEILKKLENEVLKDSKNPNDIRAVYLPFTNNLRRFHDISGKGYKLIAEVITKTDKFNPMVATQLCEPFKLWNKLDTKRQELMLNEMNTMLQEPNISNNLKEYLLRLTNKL
assayExplanation: P. falciparum M1AAP inhibitors, biochemical, fluorogenic H-Leu-NHMec substrate, 1536-well (AID 1445)
Parameters: species or system Plasmodium falciparum 3D7, 3D7
Calls of active or inactive are those of the source.
property: IC50

So what's the measured IC50 for this one? `CC(C)(C)NC(=O)C(=O)NNC(=O)COc1ccc(Br)cc1`
619 µM (active)

So what's the measured IC50 for this one? `O=C1NC(=O)N(Cc2ccco2)C(=O)/C1=C/NNC(=O)c1ccccc1O`
26.2 µM (active)

So what's the measured IC50 for this one? `CCCCCCCCCC[n+]1cccc2c3ccccc3ccc21`
89.6 µM (active)

So what's the measured IC50 for this one? `Cc1csc(NC(=O)CSCC(=O)O)c1-c1nc2ccccc2s1`
7.09 µM (active)

So what's the measured IC50 for this one? `Cc1noc(NS(=O)(=O)c2ccc(NC(=O)CSc3nnc(-c4ccccc4)n3C3CCCCC3)cc2)c1C`
75.9 µM (active)

So what's the measured IC50 for this one? `CC(=O)NC(=S)NNC(=O)COc1ccc(Br)cc1`
2.57 µM (active)

So what's the measured IC50 for this one? `O=C(NCc1cccs1)C1CCN(S(=O)(=O)c2ccccc2F)CC1`
51 µM (active)

###

assayExplanation: inhibitors of HIV Env-driven cell fusion, dose response, cherry-pick (AID 652057)
Assay type: functional, cell-based
Active and inactive are the calls of the source.
property: AC50

So what's the measured AC50 for this one? `Cc1ccc(S(=O)(=O)Nc2ccc3c(c2)CC(=O)N([C@H](C)CO)C[C@H](C)[C@H](CN(C)S(=O)(=O)c2ccc(C)cc2)O3)cc1`
1.19 µM (active)

So what's the measured AC50 for this one? `COc1ccc(S(=O)(=O)N(C)C[C@@H]2Oc3ccc(NC(=O)Cn4cnnn4)cc3CC(=O)N([C@H](C)CO)C[C@@H]2C)cc1`
3.38 µM (active)

So what's the measured AC50 for this one? `O=C(C[C@@H]1CC[C@H](NC(=O)c2cccc(F)c2)[C@H](CO)O1)NCc1ccc(Oc2ccccc2)cc1`
28.5 µM (active)

So what's the measured AC50 for this one? `CCN(C[C@H]1N[C@@](C)(C(=O)OC)[C@H]2C(=O)N(Cc3ccccc3)C(=O)[C@@H]12)S(=O)(=O)c1ccc(C)cc1`
5.73 µM (active)

So what's the measured AC50 for this one? `C[C@H]1CN([C@@H](C)CO)C(=O)Cc2cc(NC(=O)Cc3ccccc3)ccc2O[C@H]1CN(C)S(=O)(=O)c1cccs1`
1.48 µM (active)

So what's the measured AC50 for this one? `Cc1ccc(S(=O)(=O)N2CCC(=O)N(CCOCc3ccc(C(F)(F)F)cc3)CC2)cc1`
5.79 µM (active)

###

Test system: Streptococcus
assayExplanation: Group A Streptococcus viability loss, dose response, counter-screen for streptokinase expression inhibitor project, luminescence, BacTiterGlo (AID 1915);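 note: potency for reduction of bacterial viability or growth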
Format: functional, organism-based
Active and inactive are the calls of the source.
Please go through the items and note down their EC50.

So what's the measured EC50 for this one? `c1ccc2c(Nc3nc4c(s3)CCCC4)cccc2c1`
> 150 µM (not active)

So what's the measured EC50 for this one? `Cc1c(Cl)cccc1N=C(S)NCCC(c1ccccc1)c1ccccc1`
> 150 µM (not active)

So what's the measured EC50 for this one? CCOC(=O)c1c(C)oc2c1c(C(c1ccccc1)N1CCOCC1)c(O)c1ccccc12 (stereo unspecified)
5.32 µM (active)

So what's the measured EC50 for this one? `CC1CCN(c2nc(CN3CCCCC3)nc3scc(-c4ccccc4)c23)CC1`
> 150 µM (not active)

So what's the measured EC50 for this one? `COc1ccc(CCn2c(C)cc(C(=O)COC(=O)c3ccc(NC(=O)CC#N)cc3)c2C)cc1`
> 150 µM (not active)

So what's the measured EC50 for this one? CC(C)c1ccc2c(c1)C1(NN=C(c3ccccc3)S1)C(=O)N2 (stereo unspecified)
2.81 µM (active)

###

assaySystem: Eukaryotic translation initiation factor 4E (Mus musculus)
Sequence (P63073 whole entry): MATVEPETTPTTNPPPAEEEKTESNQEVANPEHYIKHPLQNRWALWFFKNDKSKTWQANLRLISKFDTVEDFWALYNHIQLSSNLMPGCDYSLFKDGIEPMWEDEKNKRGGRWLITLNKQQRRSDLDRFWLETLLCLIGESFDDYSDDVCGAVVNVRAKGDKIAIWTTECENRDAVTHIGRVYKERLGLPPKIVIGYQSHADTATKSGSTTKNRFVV
assayExplanation: eIF4E–eIF4G protein interaction inhibitors, dose response, biochemical, TR-FRET (AID 855);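 note: potency for disrupting eIF4E binding to eIF4GI seen as loss of FRET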
Assay type: functional
The source made the active and inactive calls.
Answer with one of the outcomes active, inactive

Assay result, entry `Fc1c(F)c(C(F)(F)F)c(F)c(F)c1N1CCN(c2ccc3nnc(C(F)(F)F)n3n2)CC1` — outcome?
inactive

Assay result, entry `CCCCCCCCCC(=O)N/N=C/c1ccc(C)s1` — outcome?
inactive

Assay result, entry Cc1ccc(N2C(=O)c3ccccc3C2(O)c2ncc[nH]2)cc1 (centres undefined) — outcome?
inactive

Assay result, entry `O=c1c2c([N+](=O)[O-])cc([N+](=O)[O-])cc2sn1-c1ccc(Br)cc1` — outcome?
active

###

assaySystem: Cytochrome P450 2C19 (Homo sapiens)
Sequence (P33261 whole entry): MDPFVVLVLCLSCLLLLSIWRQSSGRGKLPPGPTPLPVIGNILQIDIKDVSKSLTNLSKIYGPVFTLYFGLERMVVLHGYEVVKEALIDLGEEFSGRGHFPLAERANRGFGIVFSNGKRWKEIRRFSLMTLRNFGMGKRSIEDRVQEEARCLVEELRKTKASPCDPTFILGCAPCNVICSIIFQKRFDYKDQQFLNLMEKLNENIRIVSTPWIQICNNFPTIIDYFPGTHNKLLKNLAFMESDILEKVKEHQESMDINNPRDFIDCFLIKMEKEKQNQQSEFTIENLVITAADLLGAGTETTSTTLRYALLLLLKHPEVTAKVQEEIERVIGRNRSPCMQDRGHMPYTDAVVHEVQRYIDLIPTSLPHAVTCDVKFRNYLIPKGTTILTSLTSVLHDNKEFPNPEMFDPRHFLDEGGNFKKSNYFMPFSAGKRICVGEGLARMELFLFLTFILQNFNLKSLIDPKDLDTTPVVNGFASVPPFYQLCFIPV
assayExplanation: Cytochrome panel assay with activity outcomes. Panel member name: p450-cyp2c19 Compounds with AC50 equal or less than 10 uM are considered active
Assay type: functional
condition: read-out: AC50
Please go through the items and note down their AC50.

So what's the measured AC50 for this one? `Cc1cnn(CCC(=O)NN=C(S)Nc2ccc(F)cc2)c1`
17.8 µM (inconclusive)

So what's the measured AC50 for this one? `Cc1cc(C)cc(-n2nnc(C(=O)NCc3ccccc3Cl)c2N)c1`
3.16 µM (inconclusive)

So what's the measured AC50 for this one? COc1ccc(/C=C2\CCCC3C2=NN(C(=O)c2ccco2)C3c2ccc(OC)c(OC)c2)cc1OC (configuration not stated)
31.6 µM (inconclusive)

So what's the measured AC50 for this one? CC1(C)CC2(CCO1)OC(=O)CC2C(=O)NCCc1ccccc1 (configuration not stated)
25.1 µM (inconclusive)

So what's the measured AC50 for this one? `CCOc1ccc(N(CC(=O)NCc2ccc(OC)cc2)S(=O)(=O)c2c(C)noc2C)cc1`
0.282 µM (inconclusive)

So what's the measured AC50 for this one? `COC(=O)[C@@]1(Cc2ccc(OC)cc2)[C@H]2c3cc(C(=O)N(C)C)n(CCSCCO)c3C[C@H]2CN1C(=O)c1ccccc1`
20 µM (inconclusive)

So what's the measured AC50 for this one? `COCCn1c(=O)c(-c2cccc(C#N)c2)nc2cnc(Oc3ccc(OC)cc3)nc21`
39.8 µM (inconclusive)

So what's the measured AC50 for this one? `CCc1ccccc1OC[C@@H](O)CN[C@H]1CCCc2ccccc21`
2 µM (inconclusive)

So what's the measured AC50 for this one? `Cc1cccc(NC(=O)CSc2nnnn2C)n1`
39.8 µM (inconclusive)

So what's the measured AC50 for this one? N=C(N)NCCC[C@H](N)C(=O)O [ARGININE]
10 µM (inconclusive)

So what's the measured AC50 for this one? CC1Cc2ccccc2N1C(=O)CSCC(=O)O (configuration not stated)
11.2 µM (inconclusive)

So what's the measured AC50 for this one? `COC(=O)[C@H](CCSC)NC(=O)NCc1ccccc1F`
0.0158 µM (inconclusive)

So what's the measured AC50 for this one? `COc1ccc(Oc2ncc3nc(-c4ccccc4)c(=O)n(C4CC4)c3n2)cc1`
31.6 µM (inconclusive)

So what's the measured AC50 for this one? `CCn1c(C)nc2c1C(=O)c1ccccc1C2=O`
20 µM (inconclusive)

So what's the measured AC50 for this one? `CCCCN(CC)S(=O)(=O)N1CCC(C(=O)NCCCN2CCOCC2)CC1`
1 µM (inconclusive)

So what's the measured AC50 for this one? `CCNC(=O)CSc1nnc(C2CC2)n1-c1ccccc1`
22.4 µM (inconclusive)

So what's the measured AC50 for this one? `C/C(=N\NC(=O)c1ccccc1C)c1ccc(NC(=O)c2cccs2)cc1`
31.6 µM (inconclusive)
